Tested on: OVCAR-5
Test: NCI tumour cell line growth inhibition, 48 h
Activity calls are given as the source filed them. No stated cut-off is given here; in the data, active = GI50 up to about 1.1 µM and inactive = higher.
Classes used: active, inactive

>  <molecule>
CC(=O)NC(Cc1ccsc1)C(=O)O (configuration not stated)

>  <answer.label>
inactive

$$$$
>  <molecule>
Cc1c2ncccc2c(C)c2c1[nH]c1ccccc12

>  <answer.label>
inactive

$$$$
>  <molecule>
COC(=O)C(=O)C(C(=O)OC)C(=O)C(=O)Nc1cc(Cl)c(C)cc1S(=O)(=O)O (configuration not stated)

>  <answer.label>
inactive

$$$$
>  <molecule>
CCOc1ccccc1NC(=O)CC(C(=O)OC)C(=O)C(=O)OC (configuration not stated)

>  <answer.label>
inactive

$$$$
>  <molecule>
COc1c(C)c(OC)c2c(c1O)[C@@H]1[C@@H]3Cc4c(OC)c(C)c(OC)c(O)c4[C@H](CNC(=O)c4ccc5ccccc5n4)N3[C@@H](C#N)[C@H](C2)N1C

>  <answer.label>
active

$$$$
>  <molecule>
O=[N+]([O-])C1=Cc2c(O)ccc(O)c2C2c3ccccc3NC12 (configuration not stated)

>  <answer.label>
inactive

$$$$
>  <molecule>
CCCCCCCCC/C=C1/CC(CO)(COC(=O)c2ccccc2)OC1=O (configuration not stated)

>  <answer.label>
inactive

$$$$
>  <molecule>
COc1cc(/C=C2\NC(=S)C3Cc4c(OC)c(C)c(OC)c(OC)c4C2N3C)c(OC)c(C)c1OC (configuration not stated)

>  <answer.label>
inactive

$$$$
>  <molecule>
c1ccc(-c2nc(-c3ccccc3)c(-c3ccccc3)[nH]2)cc1

>  <answer.label>
inactive

$$$$
>  <molecule>
N/N=C1/C2CN3CCN(C2)CC1(c1ccc([N+](=O)[O-])cc1)C3

>  <answer.label>
inactive

$$$$
>  <molecule>
CN(C)CC1CCCC/C1=N/OC(=O)c1ccc(Cl)c(Cl)c1 (configuration not stated)

>  <answer.label>
inactive

$$$$
>  <molecule>
CCN(CC)CCNc1c(OC)cc(C)c2sc3ccccc3c(=O)c12

>  <answer.label>
inactive

$$$$
>  <molecule>
Nc1c(S(N)(=O)=O)cc(S(N)(=O)=O)cc1S(N)(=O)=O

>  <answer.label>
inactive

$$$$
>  <molecule>
COc1cc(CNC(=O)[C@H](Cc2ccc(O)cn2)NC(C)=O)cc(OC)c1

>  <answer.label>
inactive

$$$$
>  <molecule>
Cc1ccc(S(=O)(=O)N(CC(O)COc2ccccc2)c2c(F)c(F)c(F)c(F)c2F)cc1 (configuration not stated)

>  <answer.label>
inactive

$$$$
>  <molecule>
O=C(CCc1ccc(O)cc1)NCCc1ccc(O)cc1

>  <answer.label>
inactive

$$$$
>  <molecule>
CC(=O)OCCOCNC(=S)N/N=C/c1ccc(Br)s1

>  <answer.label>
inactive

$$$$
>  <molecule>
O=C1CC(Nc2ccccc2)c2c(Cl)sc(Cl)c21 (configuration not stated)

>  <answer.label>
inactive

$$$$
>  <molecule>
O=C(O)c1ccccc1NS(=O)(=O)c1ccc(Cl)cc1

>  <answer.label>
inactive

$$$$
>  <molecule>
CC(=O)C(CN1C(=O)c2ccccc2C1=O)C(C)=O

>  <answer.label>
inactive

$$$$
>  <molecule>
CN1C(c2ccccc2)CC(=O)C(N)C1c1ccccc1 (configuration not stated)

>  <answer.label>
inactive

$$$$
>  <molecule>
CO[C@]12C[C@@H](CNC(=O)c3cc(Br)c[nH]3)O[C@H]1NC(=O)N2

>  <answer.label>
inactive

$$$$
>  <molecule>
CC(=O)/C(=C/n1c(=S)[nH]c2ccccc21)C(=O)Nc1ccccc1C

>  <answer.label>
inactive

$$$$
>  <molecule>
O=C1C/C(=C\c2ccccc2)C(=O)c2ccccc2N1

>  <answer.label>
inactive

$$$$
>  <molecule>
CC(C)(C)OC/C=C1\C(=O)O[C@H]2C[C@@H](O[Si](C)(C)C(C)(C)C)C[C@@H]12

>  <answer.label>
inactive

$$$$
>  <molecule>
COc1cc2ccnc3c(=C(SC)SC)c(=O)c(c1OC)c23

>  <answer.label>
inactive

$$$$
>  <molecule>
CCc1cccc(C)c1NS(=O)(=O)c1ccccc1

>  <answer.label>
inactive

$$$$
>  <molecule>
CC(=O)OCC12CC(CC1OC(C)=O)c1ccccc12 (configuration not stated)

>  <answer.label>
inactive

$$$$
>  <molecule>
CN1C(=O)[C@](C)(Cc2ccc(F)cc2)N(C(=O)OC(C)(C)C)[C@@H]1C(C)(C)C

>  <answer.label>
inactive

$$$$
>  <molecule>
CCOc1cc(/C=C/C=C/C=C/c2ccc(N(C)C)cc2)[s+]c2ccccc12

>  <answer.label>
inactive

$$$$
>  <molecule>
Cc1ccccc1/N=N/c1c(-c2ccccc2)nn(C(=O)CC(=O)Nc2cccc(Cl)c2)c1-c1ccccc1

>  <answer.label>
inactive

$$$$
>  <molecule>
CCN1CCCC(Nc2cc(C)nc(NC(=N)Nc3ccc(Cl)c(Cl)c3)n2)C1 (configuration not stated)

>  <answer.label>
inactive

$$$$
>  <molecule>
C/C(CC(O)(C(F)(F)F)C(F)(F)F)=N\N

>  <answer.label>
inactive

$$$$
>  <molecule>
C[C@H](C(O)CC(=O)C(C)(C)O)[C@H]1CC[C@@]2(C)[C@@H]3CC[C@H]4C(C)(C)[C@@H](OC5OC(COC6OC(CO)C(O)C(O)C6O)C(O)C(O)C5O)CC[C@]4(C)C3=CC[C@]12C (some centres not stated)

>  <answer.label>
inactive

$$$$
>  <molecule>
CNC(=O)NC(CCCCNC(=O)OCc1ccccc1)C(=O)OCc1ccccc1 (configuration not stated)

>  <answer.label>
inactive

$$$$
>  <molecule>
COc1ccc2[nH]c3c(c2c1)COc1ccccc1C3=O

>  <answer.label>
inactive

$$$$
>  <molecule>
O=C1C=C(Nc2ccccc2C(=O)CC(=O)C(=O)Nc2ccc(Cl)cc2)c2ccccc2C1=O

>  <answer.label>
inactive

$$$$
>  <molecule>
O=C1CCSc2c(cnc3ccccc23)N1

>  <answer.label>
inactive

$$$$
>  <molecule>
C=CCOCCCC(=O)C(=[N+]=[N-])C(=O)OC

>  <answer.label>
inactive

$$$$
>  <molecule>
O=C1N[C@@H]2c3c(Br)sc(Br)c3C(=O)[C@@H]2O1

>  <answer.label>
inactive

$$$$
>  <molecule>
Cc1ccc(SC2C(C)(C)N(C(C)C)P2(=O)N(C(C)C)C(C)C)cc1 (configuration not stated)

>  <answer.label>
inactive

$$$$
>  <molecule>
C[C@@H]1CCC2C(C)(C)C(/C=C\C=O)C3(C)OC213 (some centres not stated)

>  <answer.label>
inactive

$$$$

====

Tested on: SR
Experiment: NCI tumour cell line growth inhibition, 48 h
Activity calls are given as the source filed them. No stated cut-off is given here; in the data, active = GI50 up to about 1.1 µM and inactive = higher.
Labels: t (active), f (inactive)

>  <compound.smiles>
O=C(/C=C/c1cccc(Oc2ccccc2)c1)NCc1ccc(C(=O)NCc2ccccc2)cc1

>  <answer.label>
f

$$$$
>  <compound.smiles>
CC(=O)c1ccc(Br)cc1NC1=CC(=O)c2ncccc2C1=O

>  <answer.label>
f

$$$$
>  <compound.smiles>
S=c1sc2c(Cl)ncnc2n1-c1ccccc1

>  <answer.label>
f

$$$$
>  <compound.smiles>
Nc1ccc(C(=O)N/C(=C\c2cccc([N+](=O)[O-])c2)c2nc3c(O)nc(S)nc3[nH]2)cc1

>  <answer.label>
f

$$$$
>  <compound.smiles>
O=C1C=C(OCCCCl)C(=O)c2c(O)ccc(O)c21

>  <answer.label>
t

$$$$
>  <compound.smiles>
C=C(C)C[C@H](Sc1nc2ccccc2s1)[C@H](C)O

>  <answer.label>
f

$$$$

====

Let's look at some molecules and their measured GI50.
Test system: PC-3
Experiment: NCI tumour cell line growth inhibition, 48 h
Calls of active or inactive are those of the source. No stated cut-off is given here; in the data, active = GI50 up to about 1.1 µM and inactive = higher.

>  <molecule>
CSc1ncnc2c1CCN2

>  <GI50>
> 10 µM (inactive)

$$$$
>  <molecule>
COc1cc(C)cc2c(-c3c(O)cc(O)c4c3C[C@H](C)N[C@H]4C)cc(-c3cc(-c4c(O)cc(O)c5c4C[C@H](C)N[C@H]5C)c4cc(C)cc(OC)c4c3O)c(O)c12

>  <GI50>
> 100 µM (inactive)

$$$$
>  <molecule>
CCO[C@@]12CCC3CC4CC[C@@](OCC)(O1)C4C32 (stereo not given in full)

>  <GI50>
> 100 µM (inactive)

$$$$
>  <molecule>
CCOC(=O)c1c[nH]c2c(Sc3ccccc3)nccc2c1=O

>  <GI50>
> 100 µM (inactive)

$$$$
>  <molecule>
Clc1ccc(-c2nc3cc(Cl)ccc3[nH]2)cc1

>  <GI50>
27.2 µM (inactive)

$$$$

====

Test system: HOP-62
Experiment: NCI tumour cell line growth inhibition, 48 h
Activity calls are given as the source filed them. Cut-off read from the data, not from the text of the source: active = GI50 up to about 1.1 µM and inactive = higher.
metric: GI50

>  <compound>
Cc1cc(NS(=O)(=O)c2ccc(NC(=O)c3ccc4nc5ccccc5c(Nc5ccc(S(=O)(=O)N=C(N)N)cc5)c4c3)cc2)no1

>  <tested.system>
HOP-62

>  <metric>
GI50

>  <reported.measurement>
17.5 µM (inactive)

$$$$
>  <compound>
[N-]=[N+]=Nc1c(Cc2ccccc2)c(Cl)nc2ccccc12

>  <tested.system>
HOP-62

>  <metric>
GI50

>  <reported.measurement>
22.4 µM (inactive)

$$$$
>  <compound>
Cc1ccc(/C=C2\CCCC(CN3CCCCC3)C2=O)cc1 (stereo unspecified)

>  <tested.system>
HOP-62

>  <metric>
GI50

>  <reported.measurement>
20.3 µM (inactive)

$$$$
>  <compound>
O=C1CCSc2c(cnc3ccccc23)N1

>  <tested.system>
HOP-62

>  <metric>
GI50

>  <reported.measurement>
> 100 µM (inactive)

$$$$
>  <compound>
COc1ccc2c(c1)C1Oc3ccccc3CC1CO2 (stereo unspecified)

>  <tested.system>
HOP-62

>  <metric>
GI50

>  <reported.measurement>
> 100 µM (inactive)

$$$$
>  <compound>
OCC1OC(O)C(/N=C\c2ccc3c(c2)OCO3)C(O)C1O (stereo unspecified)

>  <tested.system>
HOP-62

>  <metric>
GI50

>  <reported.measurement>
> 100 µM (inactive)

$$$$
>  <compound>
CCOc1cc(NC(C)=O)ccc1C(=O)N/N=C/c1ccco1

>  <tested.system>
HOP-62

>  <metric>
GI50

>  <reported.measurement>
> 100 µM (inactive)

$$$$
>  <compound>
COc1cc(C(C#N)NNc2nc(C)cc(O)n2)cc(OC)c1OC (stereo unspecified)

>  <tested.system>
HOP-62

>  <metric>
GI50

>  <reported.measurement>
> 100 µM (inactive)

$$$$
>  <compound>
CN(C)c1ccc(/C=C2\N=C(c3ccc(N)cc3)OC2=O)cc1

>  <tested.system>
HOP-62

>  <metric>
GI50

>  <reported.measurement>
> 100 µM (inactive)

$$$$
>  <compound>
C[C@@H]1CCC2C(C)(C)C(/C=C\C=O)C3(C)OC213 (stereo partly specified)

>  <tested.system>
HOP-62

>  <metric>
GI50

>  <reported.measurement>
38.9 µM (inactive)

$$$$
>  <compound>
CCCCN(CC)CC(C(C)=O)c1c(O)c2ccccc2oc1=O (stereo unspecified)

>  <tested.system>
HOP-62

>  <metric>
GI50

>  <reported.measurement>
> 100 µM (inactive)

$$$$
